Data provenance is patent US20230407243A1.

Test system: ΔtolC
Type: cell-based, Escherichia coli
assayConditions: ΔtolC; antibiotic in combination with PAβN
recordedMetric: MICb Combined (µg/mL)
State just the number; it will be interpreted in µg/mL.

Examples with their reported MICb Combined follow.
| compound | obsValue |
| --- | --- |
| CC(=O)O[C@H]1C[C@@]2(C)[C@@H](C[C@@H](O)[C@H]3[C@@]4(C)CC[C@@H](O)[C@@H](C)[C@@H]4CC[C@@]32C)/C1=C(\CCC=C(C)C)C(=O)O | 0.25 |
| CC[C@H]1OC(=O)[C@H](C)[C@@H](O[C@H]2C[C@@](C)(OC)[C@@H](O)[C@H](C)O2)[C@H](C)[C@@H](O[C@@H]2O[C@H](C)C[C@H](N(C)C)[C@H]2O)[C@](C)(O)C[C@@H](C)C(=O)[C@H](C)[C@@H](O)[C@]1(C)O | 0.25 |
| Cc1onc(-c2ccccc2)c1C(=O)N[C@@H]1C(=O)N2[C@@H]1SC(C)(C)[C@@H]2C(=O)O | 0.25 |
| CO[C@@H]1[C@@H](OC(N)=O)[C@@H](O)[C@H](Oc2ccc3c(O)c(NC(=O)c4ccc(O)c(CC=C(C)C)c4)c(=O)oc3c2C)OC1(C)C | 0.5 |

Now, please, on to the next compound.
Look up MICb Combined: `CC(=O)NC[C@H]1CN(c2ccc(N3CCOCC3)c(F)c2)C(=O)O1`
2
